system under test: HIV-1 pseudovirus X1193_c1 (HIV-1)
assay text: cell-based or functional assay
Under this convention, Yes denotes IC80 (neutralization in TZM.bl cells) strictly below 0.6 µg/mL and No denotes IC80 (neutralization in TZM.bl cells) at or above 0.6 µg/mL.

Worked set:
INSERT INTO assay_data (binder, group_label) VALUES
  ('MS-89 (antibody, V domains shown) VH: QVQLVQSGPEVRKPGTSVKVSCKAPGYTLKTYDLHWVRSVPGQGLQWMGWISHEGDKKVIVERFKAKVTITWDRSTNTAYLQLSGLTSGDTAVYYCAKGSKHRLRDYALYDDDGALNWAVDVDYLSNLEFWGQGTAVTVSS VL: DFVLTQSPLSLSVTPGESASISCKSSHSLIHGDRNNYLAWYVQKPGRSPQLLIYLASSRASGVPDRFSGSGSDKDFTLKISRVETEDVGTYYCMQGRESPWTFGQGTKVDIKR', 'No'),
  ('MS-72 (antibody, V domains shown) VH: QVQLVQSGPEVRKPGTSVKVSCKAPGNTLKTYDLHWVRSVPGQGLQWMGWISHEGDKKVIVERFKAKVTIDWDRSTNTAYLQLSGLTSGDTAVYYCAKGSKHRLRDYALYDDDGALNWAVDVDYLSNLEFWGQGTAVTVSS VL: DFVLTQSPHSLSVTPGESASISCKSSHSLIHGDRNNYLAWYVQKPGRSPQLLIYLASSRASGVPDRFSGSGSDTDFTLKISRVETEDVGTYYCMQGRESPWTFGQGTKVDIKR', 'Yes'),
  ('MS-91 (antibody, V domains shown) VH: QVQLVQSGPEVRKPGTSVKVSCKASGYTLKTYDLHWVRSVPGQGLQWMGWISHEGDKKVIVERFKAKVTIDWDRSTNTAYLQLSGLTSGDTAVYYCAKGSKHRLRDYALYDDDGALNWAVDVDYLSNLEFWGQGTAVTVSS VL: DFVLTQSPLSLSVTPGESASISCKSSHSLIHGDRNNYLAWYVQKPGRSPQLLIYLASSRASGVPDRFSGSGSDTDFTLKISRVETEDVGTYYCMQGRESPWTFGQGTKVDIKR', 'Yes');

Now turn to the next binder.
## Input Does this binder meet the criterion IC80 (neutralization in TZM.bl cells) < 0.6 µg/mL? MS-76 (antibody, V domains shown) VH: QVQLVQSGPEVRKPGTSVKVSCKAPGYTLKTYDLHWVRSVPGQGLQWMGWISHEGDKKVIVERFKAKVTIDWDRSTNTAYLQLSGLTSGDTAVYYCAKGSKHRLRDYALYDDDGALNWAVDVDYLSNLEFWGQGTAVTVSS VL: DFVLTQSPHSLSVTPGESASISCKSSHSLIHGDRNNYLAWYVQKPGRSPQLLIYLASSRASGVPDRFSGSGSDKDFTLKISRVETEDVGTYYCMQGRESPWTFGQGTKVDIKR
## Output Yes
